Would you mind telling me the reported Kd of each entry?
molecular target: T1, human insulin receptor (HIR) (human, UniProt P06213 28-1382, limits assumed); test: 125I-insulin displacement, solubilised HIR
T1 construct: Detergent-solubilised receptor; The natural receptor is an alpha2-beta2 heterotetramer cleaved from one precursor
Non-standard residues stand in square brackets, D forms with d. Primed or numbered codes have the meaning given here. No end group written: not given here. Aic′ = not defined here; Aib = CC(C)(N)C(=O)O
One number for each entry, in µM.

Lookup result for NSFYEALRMLSSK [S121] ; measured Kd: 3.1

Lookup result for EHWNTVDPFYFTLFEWLRESG [S177] ; measured Kd: 2.7

Lookup result for S379 (C-terminal Lys carrying Ald coupled to linker 19, dimer, C-C) peptide 1: GSLDESFYDWFERQLGKKKX peptide 2: GSLDESFYDWFERQLGKKKX ; measured Kd: 0.056

In the following, a different binder is considered.
Lookup result for D[Aic′]D[Aib]EFYDWFDE[dI]P[dQ] [S319] ; measured Kd: 0.87

Source of measurements: patent US20030236190A1
